The values you see were collected from paper PMC12298007.

Test: Biodistribution, CHO-K1-GRPR + CHO-K1-PSMA dual xenograft mice
Settings: female, NOD SCID, mouse, CHO-K1-PSMA tumor, intravenous, 0.37 nmol, total radioactivity, Biodistribution: CHO-K1-PSMA Tumor, Mouse #5; single tracer; dual xenograft; 24.2 h p.i.; 0.37 nmol
RECORDED_ENDPOINT: tissue uptake at 24.2 h (%ID/g)
Your answer should be a plain number; it is taken to be in %ID/g.

Input CC(C)C[C@H](NC(=O)C[C@H](O)[C@H](CC(C)C)NC(=O)[C@H](Cc1c[nH]cn1)NC(=O)CNC(=O)[C@@H](NC(=O)[C@H](C)NC(=O)[C@H](Cc1c[nH]c2ccccc12)NC(=O)[C@H](CCC(N)=O)NC(=O)[C@@H](Cc1ccccc1)NC(=O)CN1CCC(NC(=O)CN2CCN(CC(=O)O)CCN(CC(=O)O)CCN(CC(=O)O)CC2)CC1)C(C)C)C(N)=O [[^111In]In-RM2, metal not drawn] , output reported tissue uptake at 24.2 h. 0.08

---

Assay: Biodistribution, CHO-K1-GRPR + CHO-K1-PSMA dual xenograft mice
Details: female, NOD SCID, mouse, stomach (empty), intravenous, 1.08 nmol, total radioactivity, Biodistribution: Stomach (empty), Mouse #6; single tracer; dual xenograft; 25.2 h p.i.; 1.08 nmol
RECORDED_ENDPOINT: tissue uptake at 25.2 h (%ID/g)
Your answer should be a plain number; it is taken to be in %ID/g.

Input CC(C)C[C@H](NC(=O)C[C@H](O)[C@H](CC(C)C)NC(=O)[C@H](Cc1c[nH]cn1)NC(=O)CNC(=O)[C@@H](NC(=O)[C@H](C)NC(=O)[C@H](Cc1c[nH]c2ccccc12)NC(=O)[C@H](CCC(N)=O)NC(=O)[C@@H](Cc1ccccc1)NC(=O)CN1CCC(NC(=O)CN2CCN(CC(=O)O)CCN(CC(=O)O)CCN(CC(=O)O)CC2)CC1)C(C)C)C(N)=O [[^111In]In-RM2, metal not drawn] , output reported tissue uptake at 25.2 h. 0.04

---

Assay: Biodistribution, CHO-K1-GRPR + CHO-K1-PSMA dual xenograft mice
Details: female, NOD SCID, mouse, CHO-K1-GRPR tumor, intravenous, 1.08 nmol, total radioactivity, Biodistribution: CHO-K1-GRPR Tumor, Mouse #6; single tracer; dual xenograft; 25.2 h p.i.; 1.08 nmol
RECORDED_ENDPOINT: tissue uptake at 25.2 h

Input CC(C)C[C@H](NC(=O)C[C@H](O)[C@H](CC(C)C)NC(=O)[C@H](Cc1c[nH]cn1)NC(=O)CNC(=O)[C@@H](NC(=O)[C@H](C)NC(=O)[C@H](Cc1c[nH]c2ccccc12)NC(=O)[C@H](CCC(N)=O)NC(=O)[C@@H](Cc1ccccc1)NC(=O)CN1CCC(NC(=O)CN2CCN(CC(=O)O)CCN(CC(=O)O)CCN(CC(=O)O)CC2)CC1)C(C)C)C(N)=O [[^111In]In-RM2, metal not drawn] , output reported tissue uptake at 25.2 h. 0.33 %ID/g

---

Experiment: Biodistribution, CHO-K1-GRPR + CHO-K1-PSMA dual xenograft mice
Conditions: female, NOD SCID, mouse, muscle, intravenous, 1.41 nmol, total radioactivity, Biodistribution: Muscle, Mouse #7; single tracer; dual xenograft; 24.2 h p.i.; 1.41 nmol
RECORDED_ENDPOINT: tissue uptake at 24.2 h (%ID/g)
Your answer should be a plain number; it is taken to be in %ID/g.

Input CC(C)C[C@H](NC(=O)C[C@H](O)[C@H](CC(C)C)NC(=O)[C@H](Cc1c[nH]cn1)NC(=O)CNC(=O)[C@@H](NC(=O)[C@H](C)NC(=O)[C@H](Cc1c[nH]c2ccccc12)NC(=O)[C@H](CCC(N)=O)NC(=O)[C@@H](Cc1ccccc1)NC(=O)CN1CCC(NC(=O)CN2CCN(CC(=O)O)CCN(CC(=O)O)CCN(CC(=O)O)CC2)CC1)C(C)C)C(N)=O [[^111In]In-RM2, metal not drawn] , output reported tissue uptake at 24.2 h. 0.01

---

Assay: Biodistribution, PC-3 xenograft mice
Format: in vivo, NOD SCID mice
Settings: female, NOD SCID, heart, intravenous, total radioactivity; Mouse #2; single tracer; PC-3 xenograft; 7.3 h p.i.; 1.43 nmol; read-out: Biodistribution: Heart
RECORDED_ENDPOINT: tissue uptake at 7.3 h (%ID/g)
Your answer should be a plain number; it is taken to be in %ID/g.

Input CC(C)C[C@H](NC(=O)C[C@H](O)[C@H](CC(C)C)NC(=O)[C@H](Cc1c[nH]cn1)NC(=O)CNC(=O)[C@@H](NC(=O)[C@H](C)NC(=O)[C@H](Cc1c[nH]c2ccccc12)NC(=O)[C@H](CCC(N)=O)NC(=O)[C@@H](Cc1ccccc1)NC(=O)CN1CCC(NC(=O)CN2CCN(CC(=O)O)CCN(CC(=O)O)CCN(CC(=O)O)CC2)CC1)C(C)C)C(N)=O [[^111In]In-RM2, metal not drawn] , output reported tissue uptake at 7.3 h. 0.02

---

Test: Biodistribution, PC-3 xenograft mice
Assay type: in vivo, NOD SCID mice
Conditions: female, NOD SCID, mouse, PC-3 xenograft tumor, intravenous, total radioactivity; 4-25.1 h p.i.; range over mice; read-out: Uptake in PC-3 xenografts
RECORDED_ENDPOINT: tissue uptake

Input CC(C)C[C@H](NC(=O)C[C@H](O)[C@H](CC(C)C)NC(=O)[C@H](Cc1c[nH]cn1)NC(=O)CNC(=O)[C@@H](NC(=O)[C@H](C)NC(=O)[C@H](Cc1c[nH]c2ccccc12)NC(=O)[C@H](CCC(N)=O)NC(=O)[C@@H](Cc1ccccc1)NC(=O)CN1CCC(NC(=O)CN2CCN(CC(=O)O)CCN(CC(=O)O)CCN(CC(=O)O)CC2)CC1)C(C)C)C(N)=O [[^111In]In-RM2, metal not drawn] , output reported tissue uptake. 1.36 to 2.75 %ID/g

---

Test: Biodistribution, PC-3 xenograft mice
Format: in vivo, NOD SCID mice
Conditions: female, NOD SCID, PC-3 tumor, intravenous, total radioactivity; Mouse #2; single tracer; PC-3 xenograft; 7.3 h p.i.; 1.43 nmol; read-out: Biodistribution: PC-3 Tumor
RECORDED_ENDPOINT: tissue uptake at 7.3 h (%ID/g)
Your answer should be a plain number; it is taken to be in %ID/g.

Input CC(C)C[C@H](NC(=O)C[C@H](O)[C@H](CC(C)C)NC(=O)[C@H](Cc1c[nH]cn1)NC(=O)CNC(=O)[C@@H](NC(=O)[C@H](C)NC(=O)[C@H](Cc1c[nH]c2ccccc12)NC(=O)[C@H](CCC(N)=O)NC(=O)[C@@H](Cc1ccccc1)NC(=O)CN1CCC(NC(=O)CN2CCN(CC(=O)O)CCN(CC(=O)O)CCN(CC(=O)O)CC2)CC1)C(C)C)C(N)=O [[^111In]In-RM2, metal not drawn] , output reported tissue uptake at 7.3 h. 1.36

---

Test: Biodistribution, PC-3 xenograft mice
Assay type: in vivo, NOD SCID mice
Conditions: female, NOD SCID, liver, intravenous, total radioactivity; Mouse #1; single tracer; PC-3 xenograft; 25.1 h p.i.; 1.34 nmol; read-out: Biodistribution: Liver
RECORDED_ENDPOINT: tissue uptake at 25.1 h
Be sure to follow the number with its unit.

Input CC(C)C[C@H](NC(=O)C[C@H](O)[C@H](CC(C)C)NC(=O)[C@H](Cc1c[nH]cn1)NC(=O)CNC(=O)[C@@H](NC(=O)[C@H](C)NC(=O)[C@H](Cc1c[nH]c2ccccc12)NC(=O)[C@H](CCC(N)=O)NC(=O)[C@@H](Cc1ccccc1)NC(=O)CN1CCC(NC(=O)CN2CCN(CC(=O)O)CCN(CC(=O)O)CCN(CC(=O)O)CC2)CC1)C(C)C)C(N)=O [[^111In]In-RM2, metal not drawn] , output reported tissue uptake at 25.1 h. 0.17 %ID/g

---

Assay: Biodistribution, CHO-K1-GRPR + CHO-K1-PSMA dual xenograft mice
Details: female, NOD SCID, mouse, adrenal, intravenous, 2.69 nmol, total radioactivity, Biodistribution: Adrenal, Mouse #9; dual tracer; dual xenograft; 17.6 h p.i.; 2.69 nmol
RECORDED_ENDPOINT: tissue uptake at 17.6 h (%ID/g)
Your answer should be a plain number; it is taken to be in %ID/g.

Input CC(C)C[C@H](NC(=O)C[C@H](O)[C@H](CC(C)C)NC(=O)[C@H](Cc1c[nH]cn1)NC(=O)CNC(=O)[C@@H](NC(=O)[C@H](C)NC(=O)[C@H](Cc1c[nH]c2ccccc12)NC(=O)[C@H](CCC(N)=O)NC(=O)[C@@H](Cc1ccccc1)NC(=O)CN1CCC(NC(=O)CN2CCN(CC(=O)O)CCN(CC(=O)O)CCN(CC(=O)O)CC2)CC1)C(C)C)C(N)=O [[^111In]In-RM2, metal not drawn] , output reported tissue uptake at 17.6 h. 0.12
